- Target or test system: UniProt:P11473
- Sequence (P11473 1-427): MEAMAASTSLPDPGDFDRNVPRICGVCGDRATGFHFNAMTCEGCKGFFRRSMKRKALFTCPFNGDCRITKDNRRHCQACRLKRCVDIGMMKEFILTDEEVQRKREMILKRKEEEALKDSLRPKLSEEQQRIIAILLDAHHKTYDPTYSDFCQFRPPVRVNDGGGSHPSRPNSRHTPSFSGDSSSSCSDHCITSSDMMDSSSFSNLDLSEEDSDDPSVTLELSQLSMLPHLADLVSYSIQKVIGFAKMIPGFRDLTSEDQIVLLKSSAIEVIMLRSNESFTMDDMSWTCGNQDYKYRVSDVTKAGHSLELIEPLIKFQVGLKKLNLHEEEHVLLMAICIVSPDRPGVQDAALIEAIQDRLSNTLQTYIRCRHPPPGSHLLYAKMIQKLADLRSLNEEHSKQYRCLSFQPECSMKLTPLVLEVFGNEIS
- Sequence (P19793 1-462 partner): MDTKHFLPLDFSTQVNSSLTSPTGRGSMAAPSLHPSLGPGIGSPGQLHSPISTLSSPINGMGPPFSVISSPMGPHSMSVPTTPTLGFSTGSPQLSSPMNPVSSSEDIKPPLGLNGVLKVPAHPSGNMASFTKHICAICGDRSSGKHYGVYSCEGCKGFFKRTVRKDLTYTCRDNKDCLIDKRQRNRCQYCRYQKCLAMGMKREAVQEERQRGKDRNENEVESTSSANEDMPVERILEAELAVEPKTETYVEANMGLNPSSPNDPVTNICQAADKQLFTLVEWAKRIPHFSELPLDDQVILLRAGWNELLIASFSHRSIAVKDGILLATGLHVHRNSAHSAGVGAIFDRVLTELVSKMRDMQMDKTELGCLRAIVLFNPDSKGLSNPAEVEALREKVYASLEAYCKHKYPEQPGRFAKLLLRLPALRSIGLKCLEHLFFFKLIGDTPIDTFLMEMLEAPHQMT
- Assay procedure: Evaluation of VDR transcription activity in human osteoblasts (HOS cells), luciferase reporter
- Condition description: Activity (EC50, VDR transcription activity), HOS cells transfected with human VDR, human RXRα and DR3 luciferase reporter; 21 hours
pEC50: −log10 of the molar value.

Compound: C=C1/C(=C\C=C2/CCC[C@]3(C)[C@@H]([C@H](C)CN4CC[C@H](CC(F)F)C4)CC[C@@H]23)C[C@@H](O)[C@H](C)[C@@H]1O [Compound B038]
pEC50: 7.00 to 8.00
//
Compound: C=C1[C@H](O)CC(=C/C=C2\CCC[C@]3(C)[C@@H]([C@H](C)CCN4CC[C@@H](C(C)(F)F)C4)CC[C@@H]23)C[C@H]1O [Compound B093]
pEC50: 8.00 to 9.00
//
Compound: C=C1/C(=C\C=C2/CCC[C@]3(C)[C@@H]([C@H](C)CN4CC[C@H](C(C)(F)F)C4)CC[C@@H]23)C[C@@H](O)C[C@@H]1O [Compound B028]
pEC50: > 9.00
//
Compound: C=C1C(O)CC(=C/C=C2\CCC[C@]3(C)[C@@H]([C@H](C)CN4CC[C@@H](OC(F)(F)F)C4)CC[C@@H]23)C[C@H]1O (stereo in doubt) [Compound B068]
pEC50: 8.00 to 9.00
//
Compound: C[C@H](CCN1CC[C@H](C(F)F)C1)[C@H]1CC[C@H]2/C(=C/C=C3C[C@@H](O)C[C@H](O)C3)CCC[C@]12C [Compound B080]
pEC50: 7.00 to 8.00
//
Compound: C=C1/C(=C\C=C2/CCC[C@]3(C)[C@@H]([C@@H](C)CN4CCC(C(F)(F)F)CC4)CC[C@@H]23)C[C@@H](O)C[C@@H]1O [Compound C011]
pEC50: 8.00 to 9.00
//
Compound: C[C@@H](CN1CC[C@@H](CC(F)F)C1)[C@H]1CC[C@H]2/C(=C/C=C3CC(O)C[C@H](O)C3)CCC[C@]12C (stereo in doubt) [Compound B103]
pEC50: 7.00 to 8.00
//
Compound: C=C1/C(=C\C=C2/CCC[C@]3(C)[C@@H]([C@H](C)CN4CCC(C(F)(F)F)CC4)CC[C@@H]23)C[C@@H](O)[C@H](C)[C@@H]1O [Compound C010]
pEC50: 7.00 to 8.00
//
Compound: C[C@H](CN1CC[C@H](OC(F)(F)F)C1)[C@H]1CC[C@H]2/C(=C/C=C3CC(O)C[C@H](O)C3)CCC[C@]12C (stereo in doubt) [Compound B069]
pEC50: 7.00 to 8.00
//
Compound: C[C@H](CN1CC[C@@H](OC(F)F)C1)[C@H]1CC[C@H]2/C(=C/C=C3C[C@@H](O)C[C@H](O)C3)CCC[C@]12C [Compound B052]
pEC50: 7.00 to 8.00
//
Compound: C=C1/C(=C\C=C2/CCC[C@]3(C)[C@@H]([C@H](C)CN4CC[C@@H](C(C)(F)F)C4)CC[C@@H]23)C[C@@H](O)[C@H](C)[C@@H]1O [Compound B033]
pEC50: 8.00 to 9.00
//
Compound: C=C1/C(=C\C=C2/CCC[C@]3(C)[C@@H]([C@H](C)CN4CC[C@@H](C(C)(F)F)C4)CC[C@@H]23)C[C@@H](O)C[C@@H]1O [Compound B032]
pEC50: 8.00 to 9.00
//
Compound: CC[C@@H]1CCN(C[C@@H](C)[C@H]2CC[C@H]3/C(=C/C=C4C[C@@H](O)C[C@H](O)C4)CCC[C@]23C)C1 [Compound B008]
pEC50: 7.00 to 8.00
//
Compound: C=C1/C(=C\C=C2/CCC[C@]3(C)[C@@H]([C@H](C)CN4CCCC(O)(C(F)F)C4)CC[C@@H]23)C[C@@H](O)C[C@@H]1O (single isomer, unassigned) [Compound C034a]
pEC50: > 9.00
//
Compound: C[C@H](CN1CC(CC(F)F)C1)[C@H]1CC[C@H]2/C(=C/C=C3C[C@@H](O)C[C@H](O)C3)CCC[C@]12C [Compound A021]
pEC50: 6.00 to 7.00
//
Compound: C=C1/C(=C\C=C2/CCC[C@]3(C)[C@@H]([C@H](C)CN4CCO[C@@H](C(F)F)C4)CC[C@@H]23)C[C@@H](O)C[C@@H]1O [Compound D006]
pEC50: 7.00 to 8.00
//
Compound: C=C1/C(=C\C=C2/CCC[C@]3(C)[C@@H]([C@H](C)CCN4CCOCC4)CC[C@@H]23)C[C@@H](O)C[C@@H]1O [Compound D022]
pEC50: 7.00 to 8.00
//
Compound: C[C@H](CN1CC[C@@](C)(O)C1)[C@H]1CC[C@H]2/C(=C/C=C3CC(O)C[C@H](O)C3)CCC[C@]12C (stereo in doubt) [Compound B075]
pEC50: 6.00 to 7.00
//
Compound: C=C1[C@H](O)CC(=C/C=C2\CCC[C@]3(C)[C@@H]([C@H](C)CN4CCO[C@H](C(F)F)C4)CC[C@@H]23)C[C@H]1O [Compound D007]
pEC50: 8.00 to 9.00
//
Compound: C[C@H](CCN1CCOCC1)[C@H]1CC[C@H]2/C(=C/C=C3C[C@@H](O)C[C@H](O)C3)CCC[C@]12C [Compound D023]
pEC50: 7.00 to 8.00
//
Compound: C=C1[C@H](O)CC(=C/C=C2\CCC[C@]3(C)[C@@H]([C@H](C)CN4CC(OCC(F)F)C4)CC[C@@H]23)C[C@H]1O [Compound A016]
pEC50: 7.00 to 8.00
//
Compound: C=C1C(O)CC(=C/C=C2\CCC[C@]3(C)[C@@H]([C@H](C)CN4CC[C@@](C)(O)C4)CC[C@@H]23)C[C@H]1O (stereo in doubt) [Compound B076]
pEC50: 7.00 to 8.00
